Tested on: SUDHL10
PROTOCOL_NOTES: Induction of cytotoxicity (CellTiter-Glo, 5 h), SUDHL10
CONDITION_LABEL: read-out: Cytotox SUDHL10 [M] (median); SUDHL10 cells, cytotoxicity induction, CellTiter-Glo, 5 h, median
ASSAY_READOUT: IC50 (M)
Report as a plain number; the unit M is understood.

Form field IC50, entry CCc1nn(C)c2c1-c1cccc3c(CCCOc4cccc5c(F)cccc45)c(C(=O)O)n(c13)CCCCOC2 (single isomer, unassigned) [Example 300] : 2.25e-05

For this compound ( CCc1nn(C)c2c1-c1cccc3c(CCCOc4cccc5cc(F)ccc45)c(C(=O)O)n(c13)CCCCOC2 (single isomer, unassigned) [Example 288] ), measured IC50 is 6.54e-06

Sample Cc1ccc2c(CCCOc3cccc4cc(F)ccc34)c(C(=O)O)n3c2c1-c1c(nn(CCN2CCOCC2)c1C)COCCCC3 (single isomer, unassigned) [Example 293] ; IC50 observed: 9.88e-07

###

System: SUDHL10
PROTOCOL_NOTES: Induction of caspase-3/7 activity (Caspase-Glo 3/7), SUDHL10
Assay type: cell-based
CONDITION_LABEL: Homo sapiens, SU-DHL10, 3 h, caspase-3/7 induction, SUDHL10 cells, 3 h treatment; median
Counter-ions that a name gives are not always drawn.
Parameter: EC50. Scope: all listed entries.

Examples with answers:
The value of EC50 measured for the compound Cn1nc(COCc2ccc(C#N)cc2)c2c1COCCCCn1c(C(=O)O)c(CCCOc3cccc4ccccc34)c3cccc-2c31 (single isomer, unassigned; enantiomer 1) [Example 347] turned out to be > 33 µM

Record summary for COc1ccc(OCc2nn(C)c3c2-c2cccc4c(CCCOc5cccc6ccccc56)c(C(=O)O)n(c24)CCCCOC3)cc1 (racemic) [Example 319] : reported EC50 = 30.7 µM

The compound identified as Cc1nn(CCN(C)C)c2c1-c1cccc3c(CCCOc4cccc5ccccc45)c(C(=O)O)n(c13)CCCCOC2 (racemic) [Example 244, Trifluoroacetic Acid Salt] registered its EC50 at 6.42 µM

Others:
Reported EC50 of Cc1nn(CC(F)(F)F)c2c1-c1cccc3c(CCCOc4cccc5ccccc45)c(C(=O)O)n(c13)C/C=C\COC2 (racemic) [Example 098] : > 33 µM

Record Cn1nc(CC(F)(F)F)c2c1COCCCCn1c(C(=O)O)c(CCCOc3cccc4ccccc34)c3cccc-2c31 (single isomer, unassigned) [Example 220] . Reported EC50: 22.4 µM

Consider Cc1nn(C)c2c1-c1cccc3c(CCCOc4cccc5ccccc45)c(C(=O)O)n(c13)CCCCN(C)C2 (single isomer, unassigned) [Example 239] . Its measured EC50 is > 33 µM

###

ASSAYED_TARGET: MCL-1 (Homo sapiens)
Sequence (Q07820 whole entry): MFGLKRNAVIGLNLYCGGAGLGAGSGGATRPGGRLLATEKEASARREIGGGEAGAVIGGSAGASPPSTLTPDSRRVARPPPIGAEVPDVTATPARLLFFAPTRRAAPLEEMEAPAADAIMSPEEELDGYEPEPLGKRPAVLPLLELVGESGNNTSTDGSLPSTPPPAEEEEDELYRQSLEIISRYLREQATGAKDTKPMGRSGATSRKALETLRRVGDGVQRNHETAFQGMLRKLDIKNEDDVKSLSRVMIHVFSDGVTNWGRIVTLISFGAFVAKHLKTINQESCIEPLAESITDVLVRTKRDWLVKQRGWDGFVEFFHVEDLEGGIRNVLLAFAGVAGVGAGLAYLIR
PROTOCOL_NOTES: Protein-protein interaction assay MCL-1/Noxa BH3 peptide (MCL-1 assay), TR-FRET
Assay type: binding
CONDITION_LABEL: MBP-MCL-1 / Noxa BH3-derived peptide, median
Label Satisfied when IC50 < 60 nM; otherwise Not satisfied.

Q: # TODO verify IC50 < 60 nM strictly for this compound: Cn1nc(CN2CCOCC2)c2c1COCCCCn1c(C(=O)O)c(CCCOc3cccc4ccccc34)c3cccc-2c31 (single isomer, unassigned; enantiomer 2) [Example 137]
Result: Satisfied

Q: Determine whether this compound shows IC50 lower than 60 nM (ties excluded): Cc1cc(OCCCc2c(C(=O)O)n3c4c(cccc24)-c2c(COc4ccccc4)nn(C)c2CN(C)CCC3)cc(C)c1Cl (single isomer, unassigned) [Example 1-85]
Result: Not satisfied

Q: # TODO verify IC50 < 60 nM strictly for this compound: CN1CCCn2c(C(=O)O)c(CCCOc3cccc4ccccc34)c3cccc(c32)-c2c(CNCC(F)(F)F)nn(C)c2C1 (single isomer, unassigned; enantiomer 2) [Example 131]
Result: Satisfied

Continuing:
Q: Field: below-cutoff. Rule: recorded IC50 strictly less than 60 nM. Subject: Cn1nc(COc2ccc(C3=CCOCC3)cc2)c2c1COCCCCn1c(C(=O)O)c(CCCOc3cccc4ccccc34)c3cccc-2c31 (single isomer, unassigned) [Example 1-62]
Result: Not satisfied

Q: hey, is IC50 for Cc1nn(C)c2c1-c1cccc3c(CCCOc4cccc5ccccc45)c(C(=O)O)n(c13)CCCOC2 (single isomer, unassigned; enantiomer 1) [Example 044] lower than 60 nM or not?
Result: Satisfied
